- Tested on: Cortical neurone
- PROCEDURE SUMMARY: Toxicity in CD1 mouse primary cortical neurons assessed as effect on cell viability at 0.01 to 1 uM incubated for 24 hrs by CCK8 assay
- Assay type: cell-based
VALUE TYPE: Activity

>>> endpoint_value("CC(C)C1=C[C@@H]2O[C@@]23[C@@]2(C)CCC4=C(COC4=O)[C@@H]2C[C@@H]2O[C@@]23C1=O")
"Non-Toxic"
>>> endpoint_value("CC(C)[C@]1(O)[C@H](O)[C@@H]2O[C@]23[C@]2(O[C@H]2C[C@H]2C4=C(CC[C@@]23C)C(=O)OC4)[C@@H]1O")
"Non-Toxic"
>>> endpoint_value("CC(C)[C@]1(O)[C@H](F)[C@@H]2O[C@]23[C@]2(O[C@H]2C[C@H]2C4=C(CC[C@@]23C)C(=O)OC4)[C@@H]1O")
"Non-Toxic"
>>> endpoint_value("CC(C)[C@]12O[C@H]1[C@@H]1O[C@@]13[C@@]1(C)CCC4=C(COC4=O)[C@@H]1CC[C@@]3(O)[C@@H]2O")
"Non-Toxic"

* * *

- PROCEDURE SUMMARY: Toxicity in African green monkey CV1 cells assessed as effect on cell viability incubated for 24 hrs by CCK8 assay
VALUE TYPE: Activity

>>> endpoint_value("CC(C)[C@]12O[C@H]1[C@@H]1O[C@]13[C@]1(O[C@H]1C[C@H]1C4=C(CC[C@@]13C)C(=O)OC4)[C@H]2F")
"Non-Toxic"
>>> endpoint_value("CC(C)[C@]12O[C@H]1[C@@H]1O[C@]13[C@]1(O[C@H]1C[C@H]1C4=C(CC[C@@]13C)C(=O)OC4)[C@@H]2OC(=O)NC12CC3CC(C)(CC(C)(C3)C1)C2")
"Non-Toxic"
>>> endpoint_value("CC(C)[C@]12O[C@H]1[C@@H]1O[C@@]13[C@@]1(C)CCC4=C(COC4=O)[C@@H]1CC[C@@]3(O)[C@@H]2O")
"Non-Toxic"
>>> endpoint_value("CC(C)C1=C[C@@H]2O[C@@]23[C@@]2(C)CCC4=C(COC4=O)[C@@H]2C[C@@H]2O[C@@]23C1=O")
"Non-Toxic"

Turning now to a further record.
Record summary for CC(C)[C@]12O[C@H]1[C@@H]1O[C@@]13[C@@]1(C)CCC4=C(COC4=O)[C@@H]1C[C@@H]1O[C@@]13C2=O [TRIPTONIDE] : reported Activity = Non-Toxic

* * *

- PROCEDURE SUMMARY: Toxicity in CD1 mouse primary cortical neurons assessed as effect on cell viability at 100 nM incubated for 24 hrs by CCK8 assay
- Assay type: cell-based, Cortical neurone
- RUN CONDITIONS: read-out: Activity
VALUE TYPE: viability at 24 h, 0.1 µM (%)
The response must be a number in % with no trailing unit.

>>> endpoint_value("CC(C)[C@]12O[C@H]1[C@@H]1O[C@]13[C@]1(O[C@H]1C[C@H]1C4=C(CC[C@@]13C)C(=O)OC4)[C@@H]2OC(=O)NC12CC3CC(C)(CC(C)(C3)C1)C2")
73.5

Shift focus to the following entry.
Per the record, CC(C)[C@]12O[C@H]1[C@@H]1O[C@]13[C@]1(O[C@H]1C[C@H]1C4=C(CC[C@@]13C)C(=O)OC4)[C@@H]2O [TRIPTOLIDE] has viability at 24 h, 0.1 µM of 76.5
